Biological target: Human CDK12 wt/CycK (Homo sapiens (Human), UniProt Q9NYV4)
Sequence (Q9NYV4 whole entry): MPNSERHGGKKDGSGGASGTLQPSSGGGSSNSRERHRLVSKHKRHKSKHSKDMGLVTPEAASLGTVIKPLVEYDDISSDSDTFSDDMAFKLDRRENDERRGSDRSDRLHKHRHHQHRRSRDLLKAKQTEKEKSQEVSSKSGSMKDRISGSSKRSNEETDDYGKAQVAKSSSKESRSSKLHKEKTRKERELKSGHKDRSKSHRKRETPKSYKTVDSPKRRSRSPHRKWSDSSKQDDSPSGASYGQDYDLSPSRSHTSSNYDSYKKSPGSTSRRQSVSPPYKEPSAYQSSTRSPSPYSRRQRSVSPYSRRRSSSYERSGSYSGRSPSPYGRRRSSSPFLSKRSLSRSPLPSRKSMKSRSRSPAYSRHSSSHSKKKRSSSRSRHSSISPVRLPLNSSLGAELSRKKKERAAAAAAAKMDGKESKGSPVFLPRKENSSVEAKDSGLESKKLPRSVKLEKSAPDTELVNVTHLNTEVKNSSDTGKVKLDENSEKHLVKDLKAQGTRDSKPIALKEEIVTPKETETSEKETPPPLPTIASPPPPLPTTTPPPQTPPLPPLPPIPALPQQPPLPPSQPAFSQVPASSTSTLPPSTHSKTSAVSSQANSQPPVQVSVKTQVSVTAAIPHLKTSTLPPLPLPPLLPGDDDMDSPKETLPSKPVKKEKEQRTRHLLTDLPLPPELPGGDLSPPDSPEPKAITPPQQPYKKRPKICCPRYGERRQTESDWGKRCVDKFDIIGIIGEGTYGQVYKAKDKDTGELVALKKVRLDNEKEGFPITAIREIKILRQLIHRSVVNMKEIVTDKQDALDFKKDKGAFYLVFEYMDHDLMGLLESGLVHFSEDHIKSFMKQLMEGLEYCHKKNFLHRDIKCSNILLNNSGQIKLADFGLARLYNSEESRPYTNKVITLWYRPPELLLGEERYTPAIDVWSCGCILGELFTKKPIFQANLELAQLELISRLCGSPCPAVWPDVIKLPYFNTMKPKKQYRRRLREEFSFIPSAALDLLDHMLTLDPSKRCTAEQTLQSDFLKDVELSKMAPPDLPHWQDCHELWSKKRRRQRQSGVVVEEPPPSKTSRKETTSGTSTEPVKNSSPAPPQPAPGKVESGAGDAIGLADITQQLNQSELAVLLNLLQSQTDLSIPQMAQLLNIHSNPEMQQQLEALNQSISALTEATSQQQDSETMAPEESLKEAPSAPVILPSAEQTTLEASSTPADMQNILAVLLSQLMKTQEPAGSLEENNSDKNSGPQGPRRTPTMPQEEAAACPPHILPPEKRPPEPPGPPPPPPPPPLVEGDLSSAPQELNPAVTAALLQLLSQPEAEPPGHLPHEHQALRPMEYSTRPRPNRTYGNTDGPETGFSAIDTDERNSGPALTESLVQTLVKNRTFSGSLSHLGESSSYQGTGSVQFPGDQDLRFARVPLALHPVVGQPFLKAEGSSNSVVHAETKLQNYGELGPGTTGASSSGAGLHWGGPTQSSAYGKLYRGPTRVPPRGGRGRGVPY
Sequence (O75909 whole entry partner): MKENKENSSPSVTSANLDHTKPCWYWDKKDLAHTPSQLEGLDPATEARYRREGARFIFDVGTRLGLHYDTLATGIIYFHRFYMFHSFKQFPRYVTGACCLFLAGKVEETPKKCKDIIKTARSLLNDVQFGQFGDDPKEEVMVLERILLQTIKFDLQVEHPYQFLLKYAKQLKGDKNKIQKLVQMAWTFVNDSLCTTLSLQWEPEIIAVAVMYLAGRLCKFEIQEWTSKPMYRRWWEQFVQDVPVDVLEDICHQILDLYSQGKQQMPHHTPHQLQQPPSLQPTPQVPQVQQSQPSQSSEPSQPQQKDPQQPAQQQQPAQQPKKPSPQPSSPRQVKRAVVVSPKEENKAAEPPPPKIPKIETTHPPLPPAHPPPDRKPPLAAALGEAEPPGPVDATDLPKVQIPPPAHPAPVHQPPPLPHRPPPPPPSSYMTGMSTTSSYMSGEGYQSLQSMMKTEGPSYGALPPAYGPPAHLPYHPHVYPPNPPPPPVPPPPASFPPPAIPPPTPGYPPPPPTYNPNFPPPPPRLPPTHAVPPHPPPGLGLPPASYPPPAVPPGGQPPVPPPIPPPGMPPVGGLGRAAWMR
Test: Radiometric protein kinase assay (33PanQinase Activity Assay), CDK12
Assay type: biochemical
Details: ATP 0.3 μM; read-out: CDK12 IC50
pIC50: −log10 of the molar value.
# pIC50 >= 7 gives class 1, anything below gives class 0

(Q) Decide: is the reported value of pIC50 for CCc1cnn2c(NCc3ccc(-c4ccccn4)cc3F)cc(NC[C@H]3CCNC[C@@H]3O)nc12 equal to or greater than 7?
(A) class 1

(Q) Decide: is the reported value of pIC50 for c1ccc(-c2ccc(CNc3cc(N[C@@H]4CCNC4)nc4c(C5CC5)cnn34)cc2)nc1 equal to or greater than 7?
(A) class 0

(Q) Decide: is the reported value of pIC50 for O[C@H]1CNCC[C@@H]1CNc1cc(NCc2ccc(-c3ccccc3)cc2)n2ncc(Cl)c2n1 equal to or greater than 7?
(A) class 1

(Q) Decide: is the reported value of pIC50 for O[C@H]1CNCC[C@@H]1CNc1cc(NCc2ccc(-c3ncccc3C(F)(F)F)cc2)n2ncc(C3CC3)c2n1 equal to or greater than 7?
(A) class 0

(Q) Decide: is the reported value of pIC50 for c1ccc(-c2ccc(CNc3cc(O[C@H]4CCNC4)nc4c(C5CC5)cnn34)cc2)nc1 equal to or greater than 7?
(A) class 1

(Q) Decide: is the reported value of pIC50 for CN(C[C@H]1CCNC[C@@H]1O)c1cc(NCc2ccc(-c3ccccn3)cc2)n2ncc(C3CC3)c2n1 equal to or greater than 7?
(A) class 1

(Q) Decide: is the reported value of pIC50 for CN(c1cc(NCc2ccc(-c3ccccn3)cc2)n2ncc(C3CC3)c2n1)C1CCNCC1 equal to or greater than 7?
(A) class 0
